assay: Half life determined from epimerization data at 25 degree C in buffered saline
endpointLabel: half-life

Consider the molecule CC(C)C(NC(=O)[C@@H]1CCCN1C(=O)[C@@H](NC(=O)c1ccc(C(=O)N2CCOCC2)cc1)C(C)C)C(=O)C(F)(F)C(F)(F)F (stereo partly specified) and give its measured half-life.
> 200 h

----------
system: Cricetinae gen. sp.; assay: In vivo inhibitory activity against HNE-induced pulmonary hemorrhage was determined in hamsters after oral administration of 25 mg/kg; assay type: functional
endpointLabel: inhibition in vivo at 25 mg/kg (%)
One number for each entry, in %.

molecule	targetSystem	unitOfMeasure	inhibition in vivo at 25 mg/kg
CC(C)C(NC(=O)[C@@H]1CCCN1C(=O)[C@@H](NC(=O)c1ccc(C(=O)N2CCOCC2)cc1)C(C)C)C(=O)C(F)(F)C(F)(F)F (stereo not given in full)	Cricetinae gen. sp.	%	74
CC(C)C(NC(=O)[C@@H]1CCCN1C(=O)[C@@H](NC(=O)CCc1cccnc1)C(C)C)C(=O)C(F)(F)C(F)(F)F (stereo not given in full)	Cricetinae gen. sp.	%	67
CC(C)C(NC(=O)[C@@H]1CCCN1C(=O)[C@@H](NC(=O)N1CCOCC1)C(C)C)C(=O)C(F)(F)C(F)(F)F (stereo not given in full)	Cricetinae gen. sp.	%	69
CC(C)C(NC(=O)[C@@H]1CCCN1C(=O)[C@@H](NC(=O)c1ccc(C(=O)N2CCN(C(=O)N3CCOCC3)CC2)cc1)C(C)C)C(=O)C(F)(F)C(F)(F)F (stereo not given in full)	Cricetinae gen. sp.	%	31

Read the next record carefully.
Sample CC(C)C(NC(=O)[C@@H]1CCCN1C(=O)[C@@H](NC(=O)C(C(=O)N1CCOCC1)C(C)C)C(C)C)C(=O)C(F)(F)C(F)(F)F (stereo not given in full) — what was its inhibition in vivo at 25 mg/kg?
70

Data provenance: ChEMBL document CHEMBL1127308
